- measurement_target: mouse ACVR2A (mouse, UniProt P27038 20-135, limits assumed); further: test concentration or dose not given here
- Sequence (P27038 20-135 limits assumed): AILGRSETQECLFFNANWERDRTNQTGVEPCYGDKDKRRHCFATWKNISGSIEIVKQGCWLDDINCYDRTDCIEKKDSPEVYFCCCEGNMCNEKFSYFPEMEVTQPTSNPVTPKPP
- assay_notes: ELISA
Documented optical density across a set of binders
The response must be a number in OD with no trailing unit.

Example results:
{"columns": ["binder", "optical density / OD"],
 "data": [
  ["368_G09 (antibody, V domains shown, VH/VL only) VH: EVQLLESGGGLVQPGGSLRLSCAASGFTFDSYGMHWVRQAPGKGLEWVANINYNGGYTSYADSVKGRFTISRDNSKNTLYLQMNSLRAEDTAVYYCARSATWHDTHLDYWGQGTLVTVSS VL: DIQMTQSPSSLSASVGDRVTITCRASQSIVSYLNWYQQKPGKAPKLVIYAATSRASGVPSRFSGSGSGTDFTLTISSLQPEDFATYYCQQSYDTPLTFGGGTKVEIK", 2.81],
  ["374_H07 (antibody, V domains shown, VH/VL only) VH: EVQLLESGGGLVQPGGSLRLSCAASGFTFDSYGMNWVRQAPGKGLEWVANINYNGGYTGYADSVKGRFTISRDNSKNTLYLQMNSLRAEDTAVYYCARSANWHDTALDYWGQGTLVTVSS VL: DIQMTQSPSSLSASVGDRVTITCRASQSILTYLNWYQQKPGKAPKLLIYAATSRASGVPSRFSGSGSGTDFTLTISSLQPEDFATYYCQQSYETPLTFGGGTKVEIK", 3.25],
  ["365_B03 (antibody, V domains shown, VH/VL only) VH: EVQLLESGGGLVQPGGSLRLSCAASGFTFSSYSMNWVRQAPGKGLEWVAGINYNGGYTGYADSVKGRFTISRDNSKNTLYLQMNSLRAEDTAVYYCARSATWHDTHLDYWGQGTLVTVSS VL: DIQMTQSPSSLSASVGDRVTITCRASQSIVSYLNWYQQKPGKAPKLLIYAATSRASGVPSRFSGSGSGTDFTLTISSLQPEDFATYYCQQSYENPLTFGGGTKVEIK", 2.53],
  ["374_H08 (antibody, V domains shown, VH/VL only) VH: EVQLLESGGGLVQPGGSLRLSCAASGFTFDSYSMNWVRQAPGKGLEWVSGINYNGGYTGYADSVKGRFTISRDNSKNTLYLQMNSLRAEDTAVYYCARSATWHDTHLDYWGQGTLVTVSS VL: DIQMTQSPSSLSASVGDRVTITCRASQSILSYLNWYQQKPGKAPKLLIYAATSLHSGVPSRFSGSGSGTDFTLTISSLQPEDFATYYCQQSYENPLTFGGGTKVEIK", 3.27]
]}

Consider 375_H12 (antibody, V domains shown, VH/VL only) VH: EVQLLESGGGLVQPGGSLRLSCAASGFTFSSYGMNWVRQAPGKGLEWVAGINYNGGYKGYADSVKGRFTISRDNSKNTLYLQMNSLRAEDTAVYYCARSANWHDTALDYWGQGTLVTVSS VL: DIQMTQSPSSLSASVGDRVTITCRASQSILTYLNWYQQKPGKAPKLLIYYVTNRQSGVPSRFSGSGSGTDFTLTISSLQPEDFATYYCQQSYSIPLTFGGGTKVEIK . Its measured optical density is 3.1
